Source of measurements: patent US20030199671A1

Biological target: T1, human IgG2 (human, UniProt P01859-1 1-326 = IgG part)
T1 construct: Calbiochem; plasma IgG2 in anisotropy studies, myeloma-derived (cat. 400122) in batch/column studies; also called hIgG2
T1 sequence (P01859 other isoform, or with tags, fused parts or gaps): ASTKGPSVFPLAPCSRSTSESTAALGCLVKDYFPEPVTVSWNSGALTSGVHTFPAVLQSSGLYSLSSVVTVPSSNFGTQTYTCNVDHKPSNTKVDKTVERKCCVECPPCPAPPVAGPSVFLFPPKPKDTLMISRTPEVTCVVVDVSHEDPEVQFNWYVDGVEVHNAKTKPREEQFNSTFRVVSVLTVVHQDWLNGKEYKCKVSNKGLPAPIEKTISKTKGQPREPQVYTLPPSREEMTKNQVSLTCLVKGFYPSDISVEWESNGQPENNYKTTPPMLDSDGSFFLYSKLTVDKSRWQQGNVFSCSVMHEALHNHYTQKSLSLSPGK
Test: batch binding, immobilised ligand
Positions of bridges follow the written chain, without caps; N, C: chain ends.
metric: Bound (% of Total Load) (%)

Ac-GDSWNCAFHHNEMVWCDDGGTPGPEGGGK-NH2 (not fully specified (bridges); printed as Ac-GDSWNCAFHHNEMVWCDDGGTPGPEGGGK-NH2; cysteine pairing not given here, Immobilised on Sepharose) [DX597]	90
Ac-GDWGECTVTSYGELIWCGGLEPGPEGGGK-NH2 (not fully specified (bridges); printed as Ac-GDWGECTVTSYGELIWCGGLEPGPEGGGK-NH2; cysteine pairing not given here, Immobilised on Sepharose) [DX1070]	82
Ac-GDDHMCVYTTWGELIWCDNHEPGPEGGGK-NH2 (disulfide 6-17 (inferred), Synthetic disulfide-cyclised peptide) [DX249]	78
Ac-GDNPMCWRASWWEDAYCINHEPGPEGGGK-NH2 (not fully specified (bridges); printed as Ac-GDNPMCWRASWWEDAYCINHEPGPEGGGK-NH2; cysteine pairing not given here, Derivative of DX596 (two internal lysines replaced by arginine and alanine); immobilised) [DX1071]	2
Ac-GDNPMCWRAHWWEDAYCINHEPGPEGGGK-NH2 (not fully specified (bridges); printed as Ac-GDNPMCWRAHWWEDAYCINHEPGPEGGGK-NH2; cysteine pairing not given here, Derivative of DX596 (Lys-Lys to Arg-Ala and adjacent Ser to His); immobilised) [DX1072]	21
Ac-GDRRACSRDWSGALVWCAGHEPGPEGGGK-NH2 (not fully specified (bridges); printed as Ac-GDRRACSRDWSGALVWCAGHEPGPEGGGK-NH2; cysteine pairing not given here, immobilised on Sepharose in batch/column assays) [DX253]	81
